# measurement-description: NCI Yeast Anticancer Drug Screen. Data for the bub3 strain (AID 167)
# measurement-parameters: S. cerevisiae bub3 mutant strain, at 5.0 µM (retest, dose inferred, filed as 0.5), active compounds read high
Compounds without any hit were thinned out: in the full panel of roughly 79,000, 15% have a hit.
Kindly return Met if reported growth inhibition is no lower than 20%; return Not met if it is lower.

Illustrative cases are given below, each with its answer.
{"compound": "O=C(Cc1csc2[n+]1C(=O)/C(=C/c1ccc(Cl)cc1)S2)Nc1ccccc1", "class-name": "Met"}
{"compound": "O=C1c2cc([N+](=O)[O-])ccc2-c2cccc(F)c21", "class-name": "Not met"}
{"compound": "CC(C)C1=CCC2C(=C1)CCC1C(C)(C(=O)O)CCCC21C (stereo not given) (tested in a mixture with another compound)", "class-name": "Met"}
{"compound": "CC(C)=CC(=O)O[C@@H]1CC(C)(C)CC2C3=CCC4[C@]56CC[C@](O)(OC5)C(C)(C)C6CC[C@@]4(C)C3(C)CC[C@]21C(=O)O (stereo not given in full)", "class-name": "Met"}
{"compound": "CNC1C(OC2C(OC3C(O)C(O)C(N=C(N)N)C(O)C3N=C(N)N)OC(C)C2(O)CO)OC(CO)C(O)C1O (stereo not given)", "class-name": "Not met"}

Q) Entry CCN(CC)CCN1C(=O)c2cccc3cc(OC)cc(c23)C1=O : is its growth inhibition no less than 20%?
A) Not met

Q) Entry O=C(c1cc(Br)ccc1O)c1cc(Br)ccc1O : is its growth inhibition no less than 20%?
A) Not met

Q) Entry O=Nc1cccnc1N=O : is its growth inhibition no less than 20%?
A) Met
